# system under test: AR (gene 367)
# test details: ACEA_AR_antagonist_80hr: ACEA Biosciences xCELLigence Real-Time Cell Analysis on Androgen Receptor Antagonism for Proliferation (AID 2283787);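 note: 22Rv1 human prostate cancer cells with growth followed by electrical impedance; hits lower the impedance growth signal relative to DMSO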
Inconclusive results are not listed. The source made the active and inactive calls. Rule for the calls: active = hit-call score of the fitted dose curve at least 0.9, where 1 is the maximum; inconclusive = response in the unintended direction; inactive = score below 0.9.
Pick one: 1 (active), 0 (inactive)

Hi team, can someone confirm the assay call for CNC(=O)ON=C(SC)C(=O)N(C)C ?
0

Please share the test call associated with CC(COc1ccc(Oc2ccccc2)cc1)Oc1ccccn1 (centres undefined) .
1

State the result this test recorded for CCCCOC(=O)c1ccccc1C(=O)O .
0

// return assay outcome for CCOC(=O)COc1cc(-c2nn(C)c(OC(F)F)c2Cl)c(F)cc1Cl
1

Hi team, can someone confirm the assay call for CCOP(=O)(NC(C)C)Oc1ccc(SC)c(C)c1 (centres undefined) ?
1

Query: recorded result category for CCCSP(=O)(OCC)SCCC in this test
1

// return assay outcome for COc1ccc(C(=CC(=O)N2CCOCC2)c2ccc(Cl)cc2)cc1OC
1

Name the outcome recorded for COP(=O)(OC)OC(Br)C(Cl)(Cl)Br (centres undefined) in the assay.
1

Outcome? Nc1c(Cl)cc([N+](=O)[O-])cc1Cl
1
